Test: yeast display, Sf9 membrane polyspecificity reagent, FACS + sequencing; frameworks hold sequencing errors
MEASURE: polyreactivity (PSR sort gate)

// below: answered sequences
PRIMARY SEQUENCE | MEASURE | RESULT
QVQLVESGGGLVQAGGSLRLSCAASGNIFRVYDMGWYRQAPGKERELVATITSGGRTYYADSVKGRFTISRDNAKNTVYLQMNSLKPEDTAVYYCNVDVKGRPTFWSPFGRFDYWGQGTQVTVSS | polyreactivity (PSR sort gate) | high polyreactivity
QVQLVESGGGLVQAGGSLRLSCAASGRIFNAYAMGWYRPAPGKERELVAAISSIGGRTYYADSVKGRFTISRDNAKNTVYLQMNSLKPVDTAVYYCAADWSYVRYYYWGQGTQVTVSS | polyreactivity (PSR sort gate) | high polyreactivity
QVQLEESGGGLVQAGGSLRLSCAASGRTFGYYAMGWYRQAPGKERELVAAISTRSGSTYYADSVKGRFTISRDNAKNTVYLQMISLKPEDTAVYYCAADSYPDYDYWGQGTQVTVSS | polyreactivity (PSR sort gate) | low polyreactivity
QVQLVESGGGLVQAGRSLRLSCAASGLIFVNYAMGWYRPAPGHERELVAASTRSGGRTYYADSVKGRFTISRDNAKNRRYLHMNSLKPVDTAVYYCAAYVRSATLRVNYGYWGQGTQVTVSS | polyreactivity (PSR sort gate) | high polyreactivity
QVQHVESGGGLDQAARSLRLICAASGSIFTDNGMGWYRQAPGKERELVAAISWRGGTYYADSVKGRFTISRDNAKNSVYLQMNSLKPEDTAVYYCNADPEAEGNFEYYYWGQGTQVTVSS | polyreactivity (PSR sort gate) | low polyreactivity
QVQLVESGGGLVQAGGSLRLSCAASGSIFWYYAMGWYRQAPGKERELVAAISISGSTYYADSVKGRFTISRDNAKNTVYLQMNSLKPEDTAVYYCAARKFFWRSNYDYWGQGTQVNVSS | polyreactivity (PSR sort gate) | low polyreactivity
QVQLVESGGGLVQAGGSLRLSCAASGSTFPKNAMGWYRQAPGKERELVAAINTGGSTYYADSVKGRFTISLDNAKYTVYLQMNSLKPEDTAVYYCAARDNYHRDVGHPYDYWGQGTQVTVSS | polyreactivity (PSR sort gate) | low polyreactivity
QVQLVESGGGLVQAGGSLRLSCAASGFIFRRYAMGWYRQAPGKERELVAAINYSGTSTYYADSVKGRFTISRDNAKNTVYLQMNSLKPEDTAVYYCNARVGYPPYDYWGQGTQVTVSS | polyreactivity (PSR sort gate) | low polyreactivity

q: Which polyreactivity (PSR sort gate) value is on record for QVQLVESGGGLVQAGGSLRLSCAASGRTFYVYAMGWYIQAPGKERELVAAISWGGGSTYYSDSVKGRFTISRDNAKNTVYLQMNSLKPEDTAVYFCAADKTRYRLGRDYWGQGTQVTVSS ?
a: low polyreactivity

q: Which polyreactivity (PSR sort gate) reading was recorded for the sequence QVQLVESGGGLVQAGGSLRLSCAASGSIFVYYAMGWYRQAPGKERELVAAITSGGSTNYADSVKGRFTISRDNAQNTVYLQMNSLKPEDTAVYYCAVVTRAHPEDYWGQGTQVTVSS ?
a: high polyreactivity

q: Any idea what polyreactivity (PSR sort gate) was measured for QVQLVESGGGLVQAGGSLRLSCAASGRIFDYNAMGWYRQAPGKERELVAAISSRGGRTYYADSVKGRFTISRDNAKNTVYLQMNSLKPEDTAVYYCNTGWATDADDYWGQGTQVTVSS ?
a: high polyreactivity

====

Assay: yeast display, Sf9 membrane polyspecificity reagent, FACS + sequencing; frameworks hold sequencing errors
MEASURE: polyreactivity (PSR sort gate)

PRIMARY SEQUENCE | MEASURE | RESULT
QVQLVESGGGIVQAGGSLRLLCAASGRIFTGNVMGWYRQAPGKERVLVAAISYGGGSTNYADSVKGRFTISRDNAKNTVSLQMNSLIPEDTAVYYCAVLYGYRSSSRYGYDSWGQGSQVTVSS | polyreactivity (PSR sort gate) | high polyreactivity
QVQLVESGGGLFQAGGSLRLSCAASGRTFEINAMGWYRQAPGKERELVARISWSGGRTYYADSVKGRFTISRDNAKNTVYLQMNSLKPEDTAVYYCAAVLYSGGNYDSWGQGTQVTGSS | polyreactivity (PSR sort gate) | high polyreactivity
QVQLVESGGGLVQAGGSLRLSCAASGSIFDSYAMGWYRQAPGKERELVASISRRGGTTYYADSVKGRFTISRDNAKNTGYLQMNSLKPEDTAVYYCAKVGSLYQPSRYDYWGQGTQVTVTS | polyreactivity (PSR sort gate) | high polyreactivity
QVQLVESGGGSVQAGGSLRLSCAASGFTFRYYAMGWYRQAPGKERELVARISYSGTSTYYADSVKGRFTISRDNAKNTVYLQMNSLKPEDTAVYYCAKLHRTYRQYIYDYWGQGTQVTVSS | polyreactivity (PSR sort gate) | high polyreactivity
QVQLHESGGGMVQAGGSLRLSCAASGTISYAGPMGWYRQAPGKEREFVAGIGVGSNTNYADSVKGRYTIIRDNAKNTVYLKMNSLKPEDTAVYYCGVGVYAQLGRPYWGQGTQVTVSS | polyreactivity (PSR sort gate) | low polyreactivity
QVQLVESGGGVVQAGGSLRLICAASGSTFYINTMGWYRPAPGKERELVAAISWTGGRTYYADSVKGRFTISRDNAKNTVYLQLNSLKPEDTAVYYCAAYYNIPDRRRVGYDYWGQGTQVTVSS | polyreactivity (PSR sort gate) | high polyreactivity

q: Can you look up the measured polyreactivity (PSR sort gate) of QVQLVESGGGLVQAGGSLRLSCAASGSIFYFNAMGWYRQAPGKDRELVAAITYNGGSTRYADSVKGRFTISRDNAKNTVYLQMNSLKPEDTAVYYCAARAKYGPEDGYWGQGTQVTVSS for me?
a: high polyreactivity

q: Given the sequence QVQLVESGGGLVQAGGSLRLSCAASGRTFYNYAMGWYRQAPGKERELVAAIDWGSDSTYYADSVKGRFTISRDNAKNTVYLQMNSLKPEDTAVYYCAAYLVSVNSRTYDYWGQGTQVTVSS , what is its reported polyreactivity (PSR sort gate)?
a: low polyreactivity

q: Quick one: polyreactivity (PSR sort gate) of QVQLVESGGGLVQAGGSLRLSCAASGRIFLVYAMGWYIQAPGKERDLVASISSRGSSTNYADSVKGRFTISRDNANNTDYLQMNSLKPEDTAVYYCAAGVYRPRYQSTAYDYWGQGTQVTVSS ?
a: high polyreactivity

q: What value of measured polyreactivity (PSR sort gate) is listed for QVQLVESGGGLVQAGGSLRLSCAASGFIFTRYAMGWYRQAPGKERELVAVITSSGGTYYADSVKGRFTISRDNAKNTVYLQMNSLKPEDTAVYYCNAVLGYYTYDYWGQGTQVTVSS ?
a: high polyreactivity

q: Given the entry QVQLVESGGGLVQAGGSLRLSCAASGSTFYWYTMGWYRQAPGKEKELVARISSSGSTNYADSVKGRFTISRDNAKNTVYLQMNSLKPEDTAVYYCNKDWIYRGYDYWGQGTQVTVSS , report its measured polyreactivity (PSR sort gate).
a: high polyreactivity

====

Experiment: yeast display, Sf9 membrane polyspecificity reagent, FACS + sequencing; frameworks hold sequencing errors
MEASURE: polyreactivity (PSR sort gate)

PRIMARY SEQUENCE | MEASURE | RESULT
QVLRVESGGGLVQAGGSLRLSCSASGFIFRPNAMGWYRQAPGKERELVARITYRGGSTYYADSVKGRFTISRDNAKKTVYLQMNSLKPEDTEVYYCAARAVTYAGYTYNYWGQGSQVTVSS | polyreactivity (PSR sort gate) | high polyreactivity
QVQLVESGGGLVQAGGSLRLSCAASGRIFYSNAIGWYRQAPGKERELVAAIRDSAGSTRYADSVKGRFTISRDNAKNTVYLQMNSLKPVDTAVYYCNKDYVSIYFEYLDDYWGQGTQVTVSS | polyreactivity (PSR sort gate) | low polyreactivity
QVQLVESGGGLVQAGGSLRLSCAASGSIFQFSAMGWYRQAPGKERPLVAAISDRGGSTYYADSVKGRFTISRDNAKNTVYLLMNSLKPEDTAVYYCAKGGEVSQGYTDEYDYWGQGTQVTVSS | polyreactivity (PSR sort gate) | low polyreactivity
QDQLVESGGGLVQAGGSLRLSCAASRRTFSNYAMGWYRPAPGKERELVAAISGTGDNTYYADSVKVRFTISRDNANYTVYLQMNSLKPEDTAVYYCNTVYYGWPRCYGYWGQGTQVTVSS | polyreactivity (PSR sort gate) | high polyreactivity

q: Name the reported polyreactivity (PSR sort gate) value associated with the sequence QVHLVESGGGLVQAGGSLRLSSAASGSTFLYYGMGWYRQAPGTERELVATITWRGGRTYYADSVKGRFTISRDNAKNSVYLQMNSLNPEDTAVYYCAARVVGSYLKPYPYGLYYWGQGTQVTVSS
a: high polyreactivity

// data source = the nanobody polyreactivity screen of Harvey et al. (2022)
